# key: entry, value: IC50
Biological target: UniProt:P00533
Sequence (P00533 whole entry, looked up): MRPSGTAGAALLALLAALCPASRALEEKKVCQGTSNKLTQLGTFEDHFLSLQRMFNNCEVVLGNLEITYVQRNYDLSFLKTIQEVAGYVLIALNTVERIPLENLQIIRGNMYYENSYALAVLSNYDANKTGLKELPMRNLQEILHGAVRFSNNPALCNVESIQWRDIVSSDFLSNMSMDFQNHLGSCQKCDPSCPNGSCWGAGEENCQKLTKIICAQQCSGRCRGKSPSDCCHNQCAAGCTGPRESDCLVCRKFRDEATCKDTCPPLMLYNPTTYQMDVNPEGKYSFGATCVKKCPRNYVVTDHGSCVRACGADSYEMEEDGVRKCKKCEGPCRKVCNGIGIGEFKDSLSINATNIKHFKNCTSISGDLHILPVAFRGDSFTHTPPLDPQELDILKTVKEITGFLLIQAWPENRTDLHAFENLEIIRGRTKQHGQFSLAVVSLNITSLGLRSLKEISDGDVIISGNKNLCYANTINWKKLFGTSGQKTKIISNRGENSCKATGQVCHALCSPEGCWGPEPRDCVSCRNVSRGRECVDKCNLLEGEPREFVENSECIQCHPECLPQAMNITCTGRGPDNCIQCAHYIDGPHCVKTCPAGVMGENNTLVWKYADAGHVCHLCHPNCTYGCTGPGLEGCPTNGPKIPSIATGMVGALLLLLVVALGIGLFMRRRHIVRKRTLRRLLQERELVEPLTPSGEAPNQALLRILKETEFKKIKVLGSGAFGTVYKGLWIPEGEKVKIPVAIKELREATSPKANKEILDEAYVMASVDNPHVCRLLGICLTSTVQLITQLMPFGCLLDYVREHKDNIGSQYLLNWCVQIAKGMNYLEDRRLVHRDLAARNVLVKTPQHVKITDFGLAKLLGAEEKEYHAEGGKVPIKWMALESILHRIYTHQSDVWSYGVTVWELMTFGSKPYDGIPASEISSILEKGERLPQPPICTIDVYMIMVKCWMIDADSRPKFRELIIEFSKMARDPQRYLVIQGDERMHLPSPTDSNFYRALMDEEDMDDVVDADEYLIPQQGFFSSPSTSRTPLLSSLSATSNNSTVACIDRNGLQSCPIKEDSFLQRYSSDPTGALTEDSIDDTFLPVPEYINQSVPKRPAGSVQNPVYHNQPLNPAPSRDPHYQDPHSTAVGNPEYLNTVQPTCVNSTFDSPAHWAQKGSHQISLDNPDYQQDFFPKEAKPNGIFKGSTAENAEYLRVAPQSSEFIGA
Conditions: A431

Exercise: Param readout= IC50; system= UniProt:P00533; entry= "c1ccc(COc2cccc(Nc3ncnc4ccccc34)c2)cc1" ; returns value.
Key: > 50 µM

Exercise: Param readout= IC50; system= UniProt:P00533; entry= "Clc1ccc2c(Nc3ccc(OCc4ccccc4)cc3)ncnc2c1" ; returns value.
Key: > 30 µM

Exercise: Param readout= IC50; system= UniProt:P00533; entry= "O=[N+]([O-])c1ccc2ncnc(Nc3ccc(Oc4ccccc4)cc3)c2c1" ; returns value.
Key: > 50 µM

Exercise: Param readout= IC50; system= UniProt:P00533; entry= "c1ccc(COc2ccc(Oc3ncnc4ccccc34)cc2)cc1" ; returns value.
Key: > 50 µM
